Target: PD-1/PD-L1 (Homo sapiens (Human))
Sequence (Q9NZQ7 19-238): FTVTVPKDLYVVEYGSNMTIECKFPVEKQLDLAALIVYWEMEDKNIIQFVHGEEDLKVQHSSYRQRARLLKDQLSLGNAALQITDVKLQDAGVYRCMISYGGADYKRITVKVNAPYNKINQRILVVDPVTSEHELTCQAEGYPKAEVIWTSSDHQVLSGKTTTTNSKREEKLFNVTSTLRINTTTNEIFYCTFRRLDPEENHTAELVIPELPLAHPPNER
Test: PD-1/PD-L1 Binding Assay (Alphascreen)
Conditions: numeric values
pIC50: −log10 of the molar value.
observable: pIC50

| compound | assay result |
| --- | --- |
| Cc1c(-c2nc3cc(CN4CCC[C@H]4C(N)=O)c(OC(F)F)cc3o2)cccc1-c1cccc(-c2nc3cc(CN4CCC[C@H]4C(=O)O)c(OC(F)F)cc3o2)c1C | 7.48 |
| Cc1c(Nc2nccc3cc(CN4CCOCC4)cnc23)cccc1-c1cccc(-c2nc3cc(CN4CCC[C@H]4C(=O)O)c(OC(F)F)cc3o2)c1C | 9.05 |
| Cc1c(Nc2nccc3cc(CNCC(=O)O)cnc23)cccc1-c1cccc(-c2nc3cc(CN4CCC[C@H]4C(=O)O)c(OC(F)F)cc3o2)c1C | 9.52 |
| Cc1c(-c2nc3cc(CN4CCC[C@H]4C(=O)O)c(OC(F)F)cc3o2)cccc1-c1cccc(-c2ccc(CNC[C@@H]3CCC(=O)N3)cc2)c1F | 8.55 |
| Cc1c(-c2nc3cc(CN4CCC[C@H]4C(=O)O)c(OC(F)F)cc3o2)cccc1-c1cccc(-c2nc3cc(CN4CCCC4)cc(C#N)c3o2)c1C | 8.51 |
| Cc1c(-c2nc3cc(CN4CCC[C@H]4C(=O)O)c(OC(F)F)cc3o2)cccc1-c1cccc(-c2ccc(CN3CCCC3)cc2Cl)c1C | 7.11 |
| Cc1c(-c2nc3cc(CN4CC(C)C4)c(OC(F)F)cc3o2)cccc1-c1cccc(-c2nc3cc(CN4CCC[C@H]4C(=O)O)c(OC(F)F)cc3o2)c1C | 9.08 |
| Cc1c(-c2nc3cc(CNC[C@H]4CCCO4)c(OC(F)F)cc3o2)cccc1-c1cccc(-c2nc3cc(CN4CCC[C@H]4C(=O)O)c(OC(F)F)cc3o2)c1C | 8.92 |
| Cc1c(-c2nc3cc(CN[C@H]4CCC[C@H]4O)c(OC(F)F)cc3o2)cccc1-c1cccc(-c2nc3cc(CN4CCC[C@H]4C(=O)O)c(OC(F)F)cc3o2)c1C | 9.18 |
| Cc1c(-c2nc3cc(CN4CCC[C@H]4C(=O)O)c(OC(F)F)cc3o2)cccc1-c1cccc(-c2ccc(CN3CCCC3)s2)c1C | 8.24 |
| Cc1c(-c2nc3cc(CN4CC5COCC5C4)c(OC(F)F)cc3o2)cccc1-c1cccc(-c2nc3cc(CN4CCC[C@H]4C(=O)O)c(OC(F)F)cc3o2)c1C (stereo partly drawn) | 9.24 |
| Cc1c(-c2ccc(CN3CCCC3)c(C(F)(F)F)c2)cccc1-c1cccc(-c2nc3cc(CN4CCC[C@H]4C(=O)O)c(OC(F)F)cc3o2)c1C | 7.39 |
| Cc1c(-c2nc3cc(CNCCO)c(OCc4ccc(C#N)nc4)cc3o2)cccc1-c1cccc(-c2nc3cc(CN4CCC[C@H]4C(=O)O)c(OC(F)F)cc3o2)c1C | 8.72 |
| COC(=O)N[C@H](C(=O)N[C@H]1CCN(Cc2ccc(-c3cccc(-c4cccc(-c5nc6cc(CN7CCC[C@H]7C(=O)O)c(OC(F)F)cc6o5)c4C)c3C)cc2)C1)C(C)C | 8.36 |
| Cc1c(COc2cc(OCc3cncc(OC(F)F)c3)c(CN3CC[C@@H](O)C3)cc2Cl)cccc1-c1cccc(-c2nc3cc(CN4CCC[C@H]4C(=O)O)c(OC(F)F)cc3o2)c1C | 6.94 |

Reference source for all entries: patent US12187713B2
